# System: SNB-75 CNS
# methodNotes: NCI-60 one-dose screen, 48 h (100 = growth as untreated, 0 = no growth, -100 = all killed)
# appliedConditions: 10 µM unless noted
About 83,000 compounds went through this panel and 20% of them were active in at least one assay; those are over-represented in the sample as a whole.
Give measured growth for each item. Keep answers brief.
Answers are plain numbers, in %.

Solved cases below.
Cc1ccc(CC(=O)O)c(C)c1 ... 92.1
COc1ccc(-c2nc(SCC(C)C)nc(Nc3ccc([N+](=O)[O-])cc3)c2C#N)cc1 ... 88.1

Next compound, growth to be filled in.
Query string: Record lookup: for SNB-75 CNS, what growth belongs to Cc1nc2c(nnn2-c2ccccc2)c2nc(-c3ccc(Cl)cc3)oc(=O)c12 ?
Result string: 91.4

Source: PubChem BioAssay (NCI)
